- experimental-target: Protein kinase C delta type (Homo sapiens, UniProt Q05655); further: in the data inactive means no Kd found up to 30 µM
- Sequence (Q05655 whole entry): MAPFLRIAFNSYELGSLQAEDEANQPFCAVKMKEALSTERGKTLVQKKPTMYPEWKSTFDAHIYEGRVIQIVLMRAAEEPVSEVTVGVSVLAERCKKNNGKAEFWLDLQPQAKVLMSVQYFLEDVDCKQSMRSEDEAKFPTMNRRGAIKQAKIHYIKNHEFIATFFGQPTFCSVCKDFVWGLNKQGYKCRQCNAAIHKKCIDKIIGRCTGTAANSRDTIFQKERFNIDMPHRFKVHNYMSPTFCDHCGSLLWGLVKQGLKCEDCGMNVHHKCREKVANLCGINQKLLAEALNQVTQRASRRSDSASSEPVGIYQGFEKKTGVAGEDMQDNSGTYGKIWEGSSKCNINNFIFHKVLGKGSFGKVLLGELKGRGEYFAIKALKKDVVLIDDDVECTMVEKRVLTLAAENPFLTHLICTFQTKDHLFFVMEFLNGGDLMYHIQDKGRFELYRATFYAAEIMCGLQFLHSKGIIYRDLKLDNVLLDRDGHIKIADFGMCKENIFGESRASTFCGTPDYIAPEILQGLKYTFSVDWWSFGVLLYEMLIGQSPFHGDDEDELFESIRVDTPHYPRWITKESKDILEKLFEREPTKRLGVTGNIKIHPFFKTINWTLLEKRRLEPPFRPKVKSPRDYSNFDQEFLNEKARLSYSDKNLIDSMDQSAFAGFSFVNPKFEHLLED
Calls of active or inactive are those of the source.
Labels: 1 (yes) (active), 0 (no) (inactive)

> print(dat)
                                   compound  group.label
1  COCCN1CCN(Cc2ccc(-c3n[nH]c4c3C(=O)c3c(NC(=O)NN5CCOCC5)cccc3-4)cc2)CC1       0 (no)
2  C[C@@H]1COC(Nc2ccc3ncnc(Nc4ccc(OCc5nccs5)c(Cl)c4)c3c2)=N1       0 (no)
3  COc1ccc(-c2ccc3ncc4c(c3c2)n(-c2ccc(N3CCNCC3)c(C(F)(F)F)c2)c(=O)n4C)cn1 [BGT-226 FREE BASE]       0 (no)
4  Cc1c(Cn2c(C)nc3c(C(=O)O)cc(N4CCOCC4)cc32)cccc1C(F)(F)F       0 (no)
5  Cc1ccc(C(=O)Nc2ccc(Oc3cc4cnn(C)c4cc3-c3cn[nH]c3)c(F)c2)c(=O)n1-c1ccc(F)cc1       0 (no)
6  CCN1CCN(Cc2ccc(Nc3ncc(F)c(-c4cc(F)c5nc(C)n(C(C)C)c5c4)n3)nc2)CC1      1 (yes)
7  COc1cc(Nc2ncc(F)c(Nc3ccc4c(n3)N(COP(=O)(O)O)C(=O)C(C)(C)O4)n2)cc(OC)c1OC       0 (no)

----------
- experimental-target: Tyrosine-protein kinase Lck (Homo sapiens); further: in the data inactive means no Kd found up to 30 µM
- Sequence (P06239 whole entry): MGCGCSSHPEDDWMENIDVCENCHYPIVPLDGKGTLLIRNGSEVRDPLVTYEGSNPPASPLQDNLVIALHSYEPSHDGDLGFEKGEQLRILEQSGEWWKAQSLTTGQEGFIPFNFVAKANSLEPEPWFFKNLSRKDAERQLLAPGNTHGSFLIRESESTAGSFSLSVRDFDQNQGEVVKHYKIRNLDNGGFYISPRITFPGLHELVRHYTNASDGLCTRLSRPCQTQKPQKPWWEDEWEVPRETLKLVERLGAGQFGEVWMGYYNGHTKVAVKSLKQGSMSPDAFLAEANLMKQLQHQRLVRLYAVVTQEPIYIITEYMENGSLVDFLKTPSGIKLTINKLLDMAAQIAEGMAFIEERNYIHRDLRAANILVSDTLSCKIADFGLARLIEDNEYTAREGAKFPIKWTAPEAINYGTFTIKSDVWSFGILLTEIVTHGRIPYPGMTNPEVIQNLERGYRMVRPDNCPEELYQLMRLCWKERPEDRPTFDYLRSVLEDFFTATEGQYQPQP
Active and inactive are the calls of the source.
Possible outcomes: Y for active, N for inactive

> print(dat)
                          compound.structure  group.label
 1  O[C@H]1CC[C@H](Nc2ncc3nc(Nc4c(F)cc(F)cc4F)n([C@H]4CCOC4)c3n2)CC1            N
 2    O=C(NC[C@H](O)CO)c1ccncc1Nc1ccc(I)cc1F            N
 3  C=CCN(/C=C1/C(=O)O[C@H](COC)[C@@]2(C)C1=C(O)C(=O)C1=C2[C@H](OC(C)=O)C[C@]2(C)C(=O)CC[C@@H]12)CC=C            N
 4  COCCN1CCN(Cc2ccc(-c3n[nH]c4c3C(=O)c3c(NC(=O)NN5CCOCC5)cccc3-4)cc2)CC1            N
 5  C#Cc1cccc(Nc2ncnc3cc4c(cc23)OCCOCCOCCO4)c1            N
 6  COc1cccc(Nc2ncnn3ccc(CN4CC[C@@H](N)[C@H](O)C4)c23)c1            Y
 7  Cn1cc(-c2[nH]c3cc(NC(=O)[C@H](N)C4CCCCC4)cc4c3c2C=NNC4=O)cn1            Y
 8  Cc1c(NC(=O)OC[C@@H]2COCCN2)cn2ncnc(Nc3ccc4c(cnn4Cc4cccc(F)c4)c3)c12            N
 9  FC(F)(F)c1ccc(CNc2ccc(Cc3c[nH]c4ncc(Cl)cc34)cn2)cn1            N
10  CCN1CCN(Cc2ccc(Nc3ncc(F)c(-c4cc(F)c5nc(C)n(C(C)C)c5c4)n3)nc2)CC1            N
11  CCc1cc2c(cc1N1CCC(N3CCOCC3)CC1)C(C)(C)c1[nH]c3cc(C#N)ccc3c1C2=O            N
12  COc1cc2ncnc3c2cc1OCCCCCN(C)Cc1ccc(Br)cc1N3            N
13          COc1cc2ncnc(Nc3ccc(O)cc3)c2cc1OC            N
14  CNC(=O)c1cccc(-c2ccc3c(N4CCOC[C@@H]4C)nc(N4CCOC[C@@H]4C)nc3n2)c1            N
15  Cc1ccc(C(=O)Nc2ccc(Oc3cc4cnn(C)c4cc3-c3cn[nH]c3)c(F)c2)c(=O)n1-c1ccc(F)cc1            N
16  NC[C@@](O)(c1ccc(Cl)cc1)c1ccc(-c2cn[nH]c2)cc1            N

----------
Listed molecules paired with reported Kd
- experimental-target: MAP kinase-activated protein kinase 2 (Homo sapiens); further: in the data inactive means no Kd found up to 30 µM
- Sequence (P49137 whole entry): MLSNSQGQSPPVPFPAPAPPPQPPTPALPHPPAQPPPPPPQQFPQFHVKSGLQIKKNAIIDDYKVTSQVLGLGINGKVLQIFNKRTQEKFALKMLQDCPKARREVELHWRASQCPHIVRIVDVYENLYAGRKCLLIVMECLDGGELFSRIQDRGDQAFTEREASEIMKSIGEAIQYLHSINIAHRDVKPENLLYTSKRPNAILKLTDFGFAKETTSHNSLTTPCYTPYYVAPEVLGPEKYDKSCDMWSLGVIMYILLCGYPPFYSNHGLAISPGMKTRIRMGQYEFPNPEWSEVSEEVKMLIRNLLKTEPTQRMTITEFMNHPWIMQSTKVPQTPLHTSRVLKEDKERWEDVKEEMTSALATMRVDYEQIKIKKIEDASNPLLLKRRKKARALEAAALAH
Active and inactive are the calls of the source.
observed-property: Kd

> print(dat)
                                   molecule  observed.property            reported
1  COc1cccc(Nc2ncnn3ccc(CN4CC[C@@H](N)[C@H](O)C4)c23)c1 [BMS-690514]                 Kd  > 30 µM (inactive)
2  S=C(NCc1ccc2c(c1)OCO2)N1CCN(c2ncnc3c2oc2ccccc23)CC1 [AMUVATINIB]                 Kd  > 30 µM (inactive)
3  CCN1CCN(Cc2ccc(Nc3ncc(F)c(-c4cc(F)c5nc(C)n(C(C)C)c5c4)n3)nc2)CC1 [ABEMACICLIB]                 Kd  > 30 µM (inactive)
4  COCCN1CCN(Cc2ccc(-c3n[nH]c4c3C(=O)c3c(NC(=O)NN5CCOCC5)cccc3-4)cc2)CC1 [RGB-286638]                 Kd  > 30 µM (inactive)
5  O=c1[nH]c([C@@H]2CCCN2)nc2c1oc1ccc(Cl)cc12                 Kd  > 30 µM (inactive)
6  Cc1ccc(C(=O)Nc2ccc(Oc3cc4cnn(C)c4cc3-c3cn[nH]c3)c(F)c2)c(=O)n1-c1ccc(F)cc1 [MERESTINIB]                 Kd  > 30 µM (inactive)
7  CCOc1ccn(-c2ccc(F)cc2)c(=O)c1C(=O)Nc1ccc(Oc2ccnc(N)c2Cl)c(F)c1 [BMS-777607]                 Kd  > 30 µM (inactive)

----------
- experimental-target: Serine/threonine-protein kinase TAO3 (Homo sapiens); further: in the data inactive means no Kd found up to 30 µM
- Sequence (Q9H2K8 whole entry): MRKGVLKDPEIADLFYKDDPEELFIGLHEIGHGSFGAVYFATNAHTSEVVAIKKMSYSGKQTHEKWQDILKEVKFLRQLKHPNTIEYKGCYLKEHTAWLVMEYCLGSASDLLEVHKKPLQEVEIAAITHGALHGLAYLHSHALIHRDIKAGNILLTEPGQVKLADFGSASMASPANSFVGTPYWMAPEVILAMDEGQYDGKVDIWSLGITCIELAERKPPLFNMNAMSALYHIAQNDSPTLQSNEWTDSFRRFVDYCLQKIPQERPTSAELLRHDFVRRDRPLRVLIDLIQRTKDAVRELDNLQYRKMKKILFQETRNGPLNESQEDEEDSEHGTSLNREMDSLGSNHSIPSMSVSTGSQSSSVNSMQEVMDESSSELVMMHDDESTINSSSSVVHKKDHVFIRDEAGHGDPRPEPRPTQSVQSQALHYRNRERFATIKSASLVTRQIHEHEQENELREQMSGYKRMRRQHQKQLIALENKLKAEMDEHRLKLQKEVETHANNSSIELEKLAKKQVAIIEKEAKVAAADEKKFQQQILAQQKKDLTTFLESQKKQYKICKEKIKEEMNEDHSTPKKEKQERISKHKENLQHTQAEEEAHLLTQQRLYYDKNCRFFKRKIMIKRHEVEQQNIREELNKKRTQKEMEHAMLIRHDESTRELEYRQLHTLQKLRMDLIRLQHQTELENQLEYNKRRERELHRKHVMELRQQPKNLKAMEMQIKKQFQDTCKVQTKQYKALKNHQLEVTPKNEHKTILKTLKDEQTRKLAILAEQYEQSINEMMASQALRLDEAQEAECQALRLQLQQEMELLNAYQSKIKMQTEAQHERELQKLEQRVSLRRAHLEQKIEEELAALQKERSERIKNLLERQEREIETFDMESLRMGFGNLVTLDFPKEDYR
Activity calls are given as the source filed them.
Possible outcomes: active, inactive

> print(dat)
                                    compound                       experimental.target  group.label
 1  Cn1c(=O)c(F)c(Nc2ccc(I)cc2F)c2c(=O)n(C[C@@H](O)CO)cnc21  Serine/threonine-protein kinase TAO3 (Homo sapiens)     inactive
 2  Cc1c(Cn2c(C)nc3c(C(=O)O)cc(N4CCOCC4)cc32)cccc1C(F)(F)F  Serine/threonine-protein kinase TAO3 (Homo sapiens)     inactive
 3  COc1ccc2c(OCc3nnc4ccc(-c5ccccc5)nn34)ccnc2c1  Serine/threonine-protein kinase TAO3 (Homo sapiens)     inactive
 4  CC1(COc2ccc3c(c2)ncn3-c2ccc3cccc(N4CCC(N)CC4)c3n2)COC1  Serine/threonine-protein kinase TAO3 (Homo sapiens)     inactive
 5  Cc1cc(C(=O)Nc2cc(Oc3ccc4nc(NC(=O)C5CC5)cn4n3)ccc2C)n(C)n1  Serine/threonine-protein kinase TAO3 (Homo sapiens)     inactive
 6    O=C(NC[C@H](O)CO)c1ccncc1Nc1ccc(I)cc1F  Serine/threonine-protein kinase TAO3 (Homo sapiens)     inactive
 7  C=CC(=O)Nc1cccc(Nc2nc(Nc3ccc(N4CCN(C(C)=O)CC4)cc3OC)ncc2C(F)(F)F)c1  Serine/threonine-protein kinase TAO3 (Homo sapiens)     inactive
 8  C=CCn1c(=O)c2cnc(Nc3ccc(N4CCN(C)CC4)cc3)nc2n1-c1cccc(C(C)(C)O)n1  Serine/threonine-protein kinase TAO3 (Homo sapiens)     inactive
 9  CC(C)(O)CC(=O)NCCn1ccc2ncnc(Nc3ccc(Oc4cccc(C(F)(F)F)c4)c(Cl)c3)c21  Serine/threonine-protein kinase TAO3 (Homo sapiens)     inactive
10  COc1ccc(-c2ccc3ncc4c(c3c2)n(-c2ccc(N3CCNCC3)c(C(F)(F)F)c2)c(=O)n4C)cn1 [BGT-226 FREE BASE]  Serine/threonine-protein kinase TAO3 (Homo sapiens)     inactive
11  Cc1ccc(C(=O)Nc2ccc(Oc3cc4cnn(C)c4cc3-c3cn[nH]c3)c(F)c2)c(=O)n1-c1ccc(F)cc1  Serine/threonine-protein kinase TAO3 (Homo sapiens)     inactive
12  NC[C@@](O)(c1ccc(Cl)cc1)c1ccc(-c2cn[nH]c2)cc1  Serine/threonine-protein kinase TAO3 (Homo sapiens)     inactive
13  CNC(=O)c1cccc(-c2ccc3c(N4CCOC[C@@H]4C)nc(N4CCOC[C@@H]4C)nc3n2)c1  Serine/threonine-protein kinase TAO3 (Homo sapiens)     inactive
14  Cc1cc(-c2cc(OC(=O)c3ccccc3)ccc2Cl)cc2nnc(Nc3ccc(OCCN4CCCC4)cc3)nc12  Serine/threonine-protein kinase TAO3 (Homo sapiens)     inactive
15  COc1cccc2cc(-c3nc([C@H]4CC[C@H](C(=O)O)CC4)n4ncnc(N)c34)[nH]c12  Serine/threonine-protein kinase TAO3 (Homo sapiens)     inactive
16  CNC(=O)c1ccc(Nc2ncc(C(F)(F)F)c(NCc3nccnc3N(C)S(C)(=O)=O)n2)cc1  Serine/threonine-protein kinase TAO3 (Homo sapiens)       active
